# assay.notes: Serum stability test, mouse serum
# Type: in vitro ADME
# condition.set: male, BALB/c CrSlc, mouse, mouse serum; residual ratio: IS ratio at 4 hours relative to 0 hours, 20 μM, 37° C.
Starred links: 1 amine or outer side, 2 acyl side, 3 side chain; linkers in the order of their positions; H or OH if unused. Positions of bridges follow the written chain, without caps; N, C: chain ends. Non-standard residues stand in square brackets, D forms with d. Residues, ends and D or L forms follow the SMILES beside them. 2Nal = N[C@@H](Cc1ccc2ccccc2c1)C(=O)O; Gly(cPent) = N[C@H](C(=O)O)C1CCCC1; Agb = N=C(N)NCC[C@H](N)C(=O)O; CH2 = C([*:1])[*:2]
parameter.measured: remaining at 4 h, 20 μM (%)
Answers are plain numbers, in %.

compound	recorded.value
N=C(N)NCCC[C@@H]1NC(=O)CNC(=O)[C@@H]2CSCSC[C@H](NC(=O)[C@H](Cc3c[nH]c4ccccc34)NC(=O)[C@H](CC(=O)O)NC1=O)C(=O)N[C@@H](CCCNC(=N)N)C(=O)N[C@@H](Cc1c[nH]c3ccccc13)C(=O)N[C@@H](C1CCCC1)C(=O)N[C@H](C(N)=O)CSCC(=O)N[C@@H](Cc1ccc3ccccc3c1)C(=O)N[C@@H](CCCNC(=N)N)C(=O)N2 [Peptide-130] ({CH2CO}-[2Nal]RCGRDWCRW[Gly(cPent)]C-NH2; linker 3-8 via CH2; thioether N-12)	98

Batch of 2 compounds: report remaining at 4 h, 20 μM for each.
1. CC(C)[C@@H]1NC(=O)[C@H](Cc2c[nH]c3ccccc23)NC(=O)[C@H](CC(N)=O)NC(=O)[C@H](CCNC(=N)N)NC(=O)CNC(=O)[C@H](CO)NC(=O)[C@H](CCCNC(=N)N)NC(=O)[C@H](Cc2ccc3ccccc3c2)NC(=O)CSC[C@@H](C(N)=O)NC(=O)[C@H](C2CCCC2)NC(=O)[C@H](Cc2c[nH]c3ccccc23)NC(=O)[C@H](CCCNC(=N)N)NC1=O [Peptide-115] ({CH2CO}-[2Nal]RSG[Agb]NWVRW[Gly(cPent)]C-NH2; thioether N-12)
2. N=C(N)NCCC[C@@H]1NC(=O)CNC(=O)[C@@H]2CSSC[C@H](NC(=O)[C@H](Cc3c[nH]c4ccccc34)NC(=O)[C@H](CC(=O)O)NC1=O)C(=O)N[C@@H](CCCNC(=N)N)C(=O)N[C@@H](Cc1c[nH]c3ccccc13)C(=O)N[C@@H](C1CCCC1)C(=O)N[C@H](C(N)=O)CSCC(=O)N[C@@H](Cc1ccc3ccccc3c1)C(=O)N[C@@H](CCCNC(=N)N)C(=O)N2 [Peptide-128] ({CH2CO}-[2Nal]RCGRDWCRW[Gly(cPent)]C-NH2; disulfide 3-8; thioether N-12)

Reply:
64.5
98.1

----------
Could you please report measured remaining at 4 h, 20 μM for the items listed next?
# assay.notes: Serum stability test, mouse serum
# Format: in vitro ADME
# condition.set: male, BALB/c CrSlc, mouse, mouse serum; residual ratio: IS ratio at 4 hours relative to 0 hours, 20 μM, 37° C.
Starred links: 1 amine or outer side, 2 acyl side, 3 side chain; linkers in the order of their positions; H or OH if unused. Positions of bridges follow the written chain, without caps; N, C: chain ends. Non-standard residues stand in square brackets, D forms with d. Residues, ends and D or L forms follow the SMILES beside them. 2Nal = N[C@@H](Cc1ccc2ccccc2c1)C(=O)O; Gly(cPent) = N[C@H](C(=O)O)C1CCCC1; hCys = N[C@@H](CCS)C(=O)O; CH2 = C([*:1])[*:2]

compound	remaining at 4 h, 20 μM
N=C(N)NCCC[C@@H]1NC(=O)CNC(=O)[C@@H]2CCSCSCC[C@H](NC(=O)[C@H](Cc3c[nH]c4ccccc34)NC(=O)[C@H](CC(=O)O)NC1=O)C(=O)N[C@@H](CCCNC(=N)N)C(=O)N[C@@H](Cc1c[nH]c3ccccc13)C(=O)N[C@@H](C1CCCC1)C(=O)N[C@H](C(N)=O)CSCC(=O)N[C@@H](Cc1ccc3ccccc3c1)C(=O)N[C@@H](CCCNC(=N)N)C(=O)N2 [Peptide-127] ({CH2CO}-[2Nal]R[hCys]GRDW[hCys]RW[Gly(cPent)]C-NH2; linker 3-8 via CH2; thioether N-12)	90%

# context switch: different compound, same remaining at 4 h, 20 μM
N=C(N)NCCC[C@@H]1NC(=O)CNC(=O)[C@@H]2CSSCC[C@H](NC(=O)[C@H](Cc3c[nH]c4ccccc34)NC(=O)[C@H](CC(=O)O)NC1=O)C(=O)N[C@@H](CCCNC(=N)N)C(=O)N[C@@H](Cc1c[nH]c3ccccc13)C(=O)N[C@@H](C1CCCC1)C(=O)N[C@H](C(N)=O)CSCC(=O)N[C@@H](Cc1ccc3ccccc3c1)C(=O)N[C@@H](CCCNC(=N)N)C(=O)N2 [Peptide-126] ({CH2CO}-[2Nal]RCGRDW[hCys]RW[Gly(cPent)]C-NH2; disulfide 3-8; thioether N-12) has a reported remaining at 4 h, 20 μM of 98.3%
